Target: human metabotropic Glutamate 4 receptor (Homo sapiens)
Construct: expressed in transfected cells; host or cells: HEK293
Sequence (Q14833 33-912): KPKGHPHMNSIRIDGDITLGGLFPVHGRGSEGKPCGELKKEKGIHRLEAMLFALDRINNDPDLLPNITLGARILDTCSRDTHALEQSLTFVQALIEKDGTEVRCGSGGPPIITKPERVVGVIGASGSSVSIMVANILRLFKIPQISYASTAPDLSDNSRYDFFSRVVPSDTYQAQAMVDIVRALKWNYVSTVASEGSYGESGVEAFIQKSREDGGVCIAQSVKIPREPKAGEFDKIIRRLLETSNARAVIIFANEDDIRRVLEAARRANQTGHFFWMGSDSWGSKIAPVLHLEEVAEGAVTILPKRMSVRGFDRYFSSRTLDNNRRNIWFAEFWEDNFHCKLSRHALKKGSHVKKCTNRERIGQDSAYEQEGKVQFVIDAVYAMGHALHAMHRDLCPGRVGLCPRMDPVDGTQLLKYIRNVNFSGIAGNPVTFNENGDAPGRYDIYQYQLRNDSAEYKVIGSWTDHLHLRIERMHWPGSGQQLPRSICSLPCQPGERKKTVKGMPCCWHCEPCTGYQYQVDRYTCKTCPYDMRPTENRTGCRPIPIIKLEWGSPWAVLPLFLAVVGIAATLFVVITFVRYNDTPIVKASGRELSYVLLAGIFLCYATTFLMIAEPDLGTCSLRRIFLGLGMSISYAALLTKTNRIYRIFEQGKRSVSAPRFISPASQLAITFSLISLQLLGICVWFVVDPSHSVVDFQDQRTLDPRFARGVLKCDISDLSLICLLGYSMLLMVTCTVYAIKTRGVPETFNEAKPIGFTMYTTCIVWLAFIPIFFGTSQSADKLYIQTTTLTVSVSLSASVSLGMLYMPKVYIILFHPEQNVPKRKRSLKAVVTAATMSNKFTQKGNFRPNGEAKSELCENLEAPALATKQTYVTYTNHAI
Assay: In vitro testing of mGluR4 potency (Assay A), cAMP HTRF in HEK293 cells
Assay type: cell-based
Settings: Table 1; HEK293 cell overexpressing human mGluR4; 10 uM L-Glutamic acid, 1 uM forskolin
Experimental: A. In Vitro Testing of mGluR4 Potency The in vitro activity of the compounds according to the invention may be investigated as follows: The HEK293 cell overexpressing the human metabotropic Glutamate 4 receptor were thawed at 37° C. and immediately diluted with cell culture medium. […] The emission at 615 nm and 665 nm (Excitation wavelength: 320 nm) are measured on the EnVision™ reader (PerkinElmer). The ratio between the emission at 665 nm and 615 is calculated by the reader. […]
Readout label: IC50 (µM)
Enter your answer as a number in µM; do not include the unit.

Data request, read-out IC50, for Cn1nccc1C(=O)N[C@H](c1nc2ccc(Br)nc2[nH]1)[C@H]1CC[C@H](C)CC1 [Intermediate 213 in WO2019/138017 (regioisomere 2), reference compound]
13.2
